# fold change of Cadaverine concentration annotations
tested on: Escherichia coli IAI1; assay: fold change of Cadaverine concentration vs plate DMSO controls (fold change (ratio)); higher = more amine produced, active = hit call of the paper (significant change in both replicates, either direction); conditions: incubation time: 27 h, anaerobic, 37 °C
Counter-ions that a name gives are not always drawn.

compound	fold change of Cadaverine concentration
C[C@@H](O)[C@H]1C(=O)N2C(C(=O)O)=C(S[C@@H]3CN[C@H](C(=O)N(C)C)C3)[C@H](C)[C@H]12 [Meropenem] (20 µM)	0.971
O=C(O)CN(CCN(CC(=O)O)CC(=O)O)CCN(CC(=O)O)CC(=O)O [Pentetic acid] (20 µM)	0.992
O=C(C1CCCCC1)N1CC(=O)N2CCc3ccccc3C2C1 (stereo not given) [Praziquantel] (20 µM)	1.02
CCCSc1ccc2[nH]c(NC(=O)OC)nc2c1 [Albendazole] (20 µM)	0.982
CC(CNC1CCCCC1)OC(=O)c1ccccc1 (stereo not given) [Hexylcaine hydrochloride] (20 µM)	0.994
CN(C)CCOC(c1ccccc1)c1ccccc1.Cn1c(=O)c2[nH]c(Cl)nc2n(C)c1=O [Dimenhydrinate] (20 µM)	0.985
Nc1nc2ccc(OC(F)(F)F)cc2s1 [Riluzole hydrochloride] (20 µM)	0.987
CC(C)(CO)[C@@H](O)C(=O)NCCCO [(D)-Panthenol] (20 µM)	1
C[C@]12CC[C@@H]3c4ccc(O)cc4CC[C@H]3[C@@H]1C[C@@H](O)[C@@H]2O [Estriol] (20 µM)	1.02
C#C[C@]1(O)CC[C@H]2[C@@H]3CCC4=CCCC[C@@H]4[C@H]3CC[C@@]21C [Lynestrenol] (20 µM)	0.997
CCCCC(CC)CN1C(=O)[C@@H]2[C@H](C1=O)[C@@H]1C=C[C@H]2C1 (mixture of isomers) (20 µM)	1.02
CCOc1ccc2nc(S(N)(=O)=O)sc2c1 [Ethoxzolamide] (20 µM)	0.981
CC(=O)O[C@H]1C[C@@]2(C)[C@@H](C[C@@H](O)[C@H]3[C@@]4(C)CC[C@@H](O)[C@@H](C)[C@@H]4CC[C@@]32C)/C1=C(\CCC=C(C)C)C(=O)O [Fusidic acid sodium salt] (20 µM)	1
CCOC(=O)/C=C(C)/C=C/C=C(C)/C=C/c1c(C)cc(OC)c(C)c1C [Etretinate] (20 µM)	1
CCN(CCCc1ccccc1)CCCc1ccccc1 [Alverine citrate salt] (20 µM)	1.29
CC[N+](CC)(CC)CCC(O)(c1ccccc1)C1CCCCC1 (stereo not given) [Tridihexethyl chloride] (20 µM)	0.857
O=C(O)COC(=O)Cc1ccccc1Nc1c(Cl)cccc1Cl [Aceclofenac] (20 µM)	0.962
CC(C)/N=c1\cc2n(-c3ccc(Cl)cc3)c3ccccc3nc-2cc1Nc1ccc(Cl)cc1 [Clofazimine] (20 µM)	1
CCCCNC(=N)NC(=N)N [Buformin] (20 µM)	1.03
COC(=O)C1=C(C)NC(C)=C(C(=O)OCC(C)C)C1c1ccccc1[N+](=O)[O-] (stereo not given) [Nisoldipine] (20 µM)	0.981

---

List of growth values.
system: Clostridium sporogenes DSM 1664; experiment: growth (OD595) fold change vs plate DMSO controls (fold change (ratio)); higher = more growth; conditions: incubation time: 27 h, anaerobic, 37 °C
Structures can show the parent of a compound that is named as a salt.

compound	growth
Cc1ccc(=O)n(-c2ccccc2)c1 [Pirfenidone] (20 µM)	0.978
CN1[C@@H]2CC[C@H]1C[C@@H](OC(=O)c1c[nH]c3ccccc13)C2 [Tropisetron hydrochloride] (20 µM)	1.14
OCCN1CCN(CCCN2c3ccccc3Sc3ccc(Cl)cc32)CC1 [Perphenazine] (20 µM)	1.05
COc1ccc2[nH]c([S+]([O-])Cc3ncc(C)c(OC)c3C)nc2c1 (centres undefined) [Omeprazole] (20 µM)	1.05
COc1cc(N)c(Cl)cc1C(=O)NC1CCN(Cc2ccccc2)CC1 [Clebopride maleate] (20 µM)	1.05
Cc1cc(O)c(C(=O)N[C@@H](C(=O)N[C@@H]2C(=O)N3C(C(=O)O)=C(CSc4nnnn4C)CS[C@H]23)c2ccc(O)cc2)cn1 [Cefpiramide] (20 µM)	0
CC1c2cccc(O)c2C(O)=C2C(=O)C3(O)C(O)=C(C(N)=O)C(=O)C(N(C)C)C3C(O)C21 (centres undefined) [Doxycycline hydrochloride] (20 µM)	0.0027
COc1ccc(OC)c(C(O)CNC(=O)CN)c1 (centres undefined) [Midodrine hydrochloride] (20 µM)	1.08
Cn1c(=O)c2c(ncn2CC2OCCO2)n(C)c1=O [Doxofylline] (20 µM)	1.05

---

fold change of Cadaverine concentration values, listed per item
test system: Escherichia coli IAI1; experiment: fold change of Cadaverine concentration vs plate DMSO controls (fold change (ratio)); higher = more amine produced, active = hit call of the paper (significant change in both replicates, either direction); conditions: incubation time: 27 h, anaerobic, 37 °C
Counter-ions that a name gives are not always drawn.
measure: fold change of Cadaverine concentration

>>> df
                                   molecule  numeric_value
0  CCCCN1CCCCC1C(=O)Nc1c(C)cccc1C (configuration not stated) [Bupivacaine hydrochloride] (20 µM)           1.01
1  CN1CCCN=C1/C=C/c1cccc(O)c1 [Oxantel pamoate] (20 µM)           1.01
2  O=c1[nH]cnc2c1ncn2[C@H]1CC[C@@H](CO)O1 [Didanosine] (20 µM)           1.69
3  CCCN1CCCC[C@H]1C(=O)Nc1c(C)cccc1C [Ropivacaine hydrochloride] (20 µM)           1.03
4           Cn1ccnc1S [Methimazole] (20 µM)          0.976
5  Cc1cc(=O)oc2cc(O)ccc12 [Hymecromone] (20 µM)          0.999
6  Cc1cc(C)nc(NS(=O)(=O)c2ccc(N)cc2)n1 [Sulfamethazine sodium salt] (20 µM)          0.986

---

tested on: Ruminococcus gnavus DSM 108212; test: fold change of 2-Phenylethylamine concentration vs plate DMSO controls (fold change (ratio)); higher = more amine produced, active = hit call of the paper (significant change in both replicates, either direction); details: incubation time: 27 h, anaerobic, 37 °C
Counter-ions that a name gives are not always drawn.
Param threshold (0.9) applies to fold change of 2-Phenylethylamine concentration; output fulfilled when value >= threshold, not fulfilled when value < threshold.

molecule	classification
Cc1ccc(C)c(OCCCC(C)(C)C(=O)O)c1 [Gemfibrozil] (20 µM)	fulfilled
CCOc1ccc2nc3cc(N)ccc3c(N)c2c1 [Ethacridine lactate] (20 µM)	not fulfilled
COC(=O)[C@H]1[C@H]2C[C@@H]3c4[nH]c5cc(OC)ccc5c4CCN3C[C@H]2C[C@@H](OC(=O)c2cc(OC)c(OC)c(OC)c2)[C@@H]1OC [Reserpine] (20 µM)	fulfilled
CC(C)(C)NCC(O)COc1cccc2c1CCC(=O)N2 (stereo not given) [Carteolol hydrochloride] (20 µM)	fulfilled

---

test system: Ruminococcus gnavus DSM 108212; assay: fold change of 2-Phenylethylamine concentration vs plate DMSO controls (fold change (ratio)); higher = more amine produced, active = hit call of the paper (significant change in both replicates, either direction); conditions: incubation time: 27 h, anaerobic, 37 °C
Structures can show the parent of a compound that is named as a salt.
We use 1 as the dividing line for fold change of 2-Phenylethylamine concentration: on or above the line is t, below is f.

compound	classification
CCC1(c2ccccc2)C(=O)NCNC1=O [Primidone] (20 µM)	t
CCCC(=O)N1CCCN(c2nc(N)c3cc(OC)c(OC)cc3n2)CC1 [Bunazosin hydrochloride] (20 µM)	t
Clc1ccc(Cn2c(CN3CCCC3)nc3ccccc32)cc1 [Clemizole hydrochloride] (20 µM)	f
CCCCOc1cc(C(=O)NCCN(CC)CC)c2ccccc2n1 [Dibucaine] (20 µM)	t
CC(C)(C)NC(=O)[C@H]1CC[C@H]2[C@@H]3CC[C@H]4NC(=O)C=C[C@]4(C)[C@H]3CC[C@]12C [Finasteride] (20 µM)	t
O=C(NCc1ncc(C(F)(F)F)cc1Cl)c1c(Cl)cccc1Cl (20 µM)	f
CC(C)(c1cc(Br)c(O)c(Br)c1)c1cc(Br)c(O)c(Br)c1 (20 µM)	f
C[C@@](Cc1ccc(O)c(O)c1)(NN)C(=O)O [Carbidopa] (20 µM)	f
CN1CCCC(n2nc(Cc3ccc(Cl)cc3)c3ccccc3c2=O)CC1 (centres undefined) [Azelastine hydrochloride] (20 µM)	f
Cc1cc(C(=O)NNCc2ccccc2)no1 [Isocarboxazid] (20 µM)	t
CCc1cc(Cl)c(OC)c(C(=O)NC[C@@H]2CCCN2CC)c1O [(S,-) Eticlopride hydrochloride] (20 µM)	f
C=CC1=C(C(=O)O)N2C(=O)[C@@H](NC(=O)/C(=N\OCC(=O)O)c3csc(N)n3)[C@H]2SC1 [Cefixime] (20 µM)	f
COCCCOc1ccnc(C[S+]([O-])c2nc3ccccc3[nH]2)c1C (centres undefined) [Rabeprazole sodium salt] (20 µM)	t
CN(C)CCC=C1c2ccccc2C=Cc2ccccc21 [Cyclobenzaprine hydrochloride] (20 µM)	f
COc1c2occc2c(OC)c2c(=O)cc(C)oc12 [Khellin] (20 µM)	t
CC=C(C)C(=O)OC1C(OC(C)=O)C2(CO)C(O)CC3(C)C(=CCC4C5(C)CCC(OC6OC(C(=O)O)C(OC7OC(CO)C(O)C(O)C7O)C(O)C6OC6OC(CO)C(O)C(O)C6O)C(C)(CO)C5CCC43C)C2CC1(C)C (stereo not drawn) [Beta-Escin] (20 µM)	f
O=C(NC(Cc1cc(=O)[nH]c2ccccc12)C(=O)O)c1ccc(Cl)cc1 (centres undefined) [Rebamipide] (20 µM)	t
OCCN1CCN(CCCN2c3ccccc3Sc3ccc(C(F)(F)F)cc32)CC1 [Fluphenazine dihydrochloride] (20 µM)	f

This collection of values is drawn from the supplement of paper PMC12494721.
